Test system: KYSE-140
PROCEDURE_DETAILS: cells
Format: functional, cell-based, Homo sapiens
CONDITION_DESCRIPTION: kyse-140
Description: SANGER: Inhibition of human KYSE-140 cell growth in a cell viability assay.
EXPERIMENTAL_ENDPOINT: pIC50
Please keep in mind that pIC50 is minus log10 of the molar concentration; only the number is needed.

>  <CHAIN_SEQUENCE>
CISPLATIN

>  <TARGET_OF_ASSAY>
KYSE-140;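 further: cell viability assay measuring growth inhibition in human KYSE-140 cells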

>  <pIC50>
5.12

$$$$

Now for a further sequence.
Input line: What does the record list as pIC50 for BLEOMYCIN ?
Output line: 5.41

---

Tested on: CAL-33;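 further: growth inhibition of CAL-33 cells, read out with a cell viability assay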
PROCEDURE_DETAILS: cells
Assay type: functional, cell-based, Homo sapiens
CONDITION_DESCRIPTION: Homo sapiens, CAL-33
Description: SANGER: Inhibition of human CAL-33 cell growth in a cell viability assay.
Where a name gives a salt, the structure may show the parent alone.
EXPERIMENTAL_ENDPOINT: pIC50
Please keep in mind that pIC50 is minus log10 of the molar concentration; only the number is needed.

Solved cases below.
>  <COMPOUND>
CC(C)c1ccccc1Cc1cc(C(=O)Nc2ccc(S(=O)(=O)c3ccccc3C(C)(C)C)cc2)c(O)c(O)c1O

>  <pIC50>
6.09

$$$$
>  <COMPOUND>
COc1cc2c(Nc3ccc(NC(=O)c4ccccc4)cc3)ncnc2cc1OCCCN1CCOCC1

>  <pIC50>
5.76

$$$$

Now for a further compound.
Input line: Value wanted: pIC50 (CAL-33) of entry COC1=CC(c2cc3ccccc3[nH]2)=N/C1=C\c1[nH]c(C)cc1C [OBATOCLAX MESYLATE]
Output line: 6.29

---

Tested on: EW-24
PROCEDURE_DETAILS: cells
Type: functional, cell-based, Homo sapiens
CONDITION_DESCRIPTION: Homo sapiens, EW-24
Description: SANGER: Inhibition of human EW-24 cell growth in a cell viability assay.
EXPERIMENTAL_ENDPOINT: IC50

>  <COMPOUND>
COc1cc2ncn(-c3cc(OCc4ccccc4S(C)(=O)=O)c(C#N)s3)c2cc1OC [GSK-319347A]

>  <TARGET_OF_ASSAY>
EW-24

>  <EXPERIMENTAL_ENDPOINT>
IC50

>  <RESULT>
> 5 µM

$$$$
>  <COMPOUND>
OCCCNc1cc(-c2ccnc(Nc3cccc(Cl)c3)n2)ccn1

>  <TARGET_OF_ASSAY>
EW-24

>  <EXPERIMENTAL_ENDPOINT>
IC50

>  <RESULT>
> 0.256 µM

$$$$
>  <COMPOUND>
CS(=O)(=O)c1ccc(C(=O)Nc2ccc(Cl)c(-c3ccccn3)c2)c(Cl)c1

>  <TARGET_OF_ASSAY>
EW-24

>  <EXPERIMENTAL_ENDPOINT>
IC50

>  <RESULT>
> 10 µM

$$$$
>  <COMPOUND>
CN(C)C(=N)NC(=N)N

>  <TARGET_OF_ASSAY>
EW-24

>  <EXPERIMENTAL_ENDPOINT>
IC50

>  <RESULT>
9450 µM

$$$$
>  <COMPOUND>
CO[C@H]1C[C@@H]2CC[C@@H](C)[C@@](O)(O2)C(=O)C(=O)N2CCCC[C@H]2C(=O)O[C@H]([C@H](C)C[C@@H]2CC[C@@H](OC(=O)C(C)(CO)CO)[C@H](OC)C2)CC(=O)[C@H](C)/C=C(\C)[C@@H](O)[C@@H](OC)C(=O)[C@H](C)C[C@H](C)/C=C/C=C/C=C/1C

>  <TARGET_OF_ASSAY>
EW-24;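 further: human EW-24 cancer cell line, growth inhibition read out via a cell viability assay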

>  <EXPERIMENTAL_ENDPOINT>
IC50

>  <RESULT>
> 0.2 µM

$$$$

Input line: What does the record list as IC50 for COc1cc2ncn(-c3cc(OCc4ccccc4C(F)(F)F)c(C(N)=O)s3)c2cc1OC [GW843682X] ?
Output line: > 0.256 µM

---

System: RL95-2
PROCEDURE_DETAILS: cells
Format: functional, cell-based
CONDITION_DESCRIPTION: Homo sapiens
Description: SANGER: Inhibition of human RL95-2 cell growth in a cell viability assay.
EXPERIMENTAL_ENDPOINT: pIC50
Please keep in mind that pIC50 is minus log10 of the molar concentration; only the number is needed.

Solved cases below.
>  <COMPOUND>
N[C@@H](CSC(c1ccccc1)(c1ccccc1)c1ccccc1)C(=O)O

>  <TARGET_OF_ASSAY>
RL95-2

>  <pIC50>
6.22

$$$$
>  <COMPOUND>
COc1cc2ncn(-c3cc(OCc4ccccc4C(F)(F)F)c(C(N)=O)s3)c2cc1OC [GW843682X]

>  <TARGET_OF_ASSAY>
RL95-2;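 further: RL95-2 growth inhibition determined through a cell viability readout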

>  <pIC50>
7.95

$$$$

Now for a further compound.
Input line: What does the record list as pIC50 for CCN(CC)CCNC(=O)c1c(C)[nH]c(/C=C2\C(=O)Nc3ccc(F)cc32)c1C ?
Output line: 5.68

---

System: NCI-H1651;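 further: Read-out is a cell viability assay, with IC50 expressing inhibition of NCI-H1651 cell growth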
PROCEDURE_DETAILS: cells
Format: functional, cell-based, Homo sapiens
CONDITION_DESCRIPTION: nci-h1651
Description: SANGER: Inhibition of human NCI-H1651 cell growth in a cell viability assay.
Quick list: IC50 per entry.
Write it as a number; the unit µM goes unstated.

>  <CHAIN_SEQUENCE>
CISPLATIN

>  <IC50 [µM]>
7.06

$$$$

Now for a further sequence.
Input line: Value wanted: IC50 (NCI-H1651) of entry BLEOMYCIN
Output line: 0.505

---

System: LS-1034
PROCEDURE_DETAILS: cells
Format: functional, cell-based, Homo sapiens
CONDITION_DESCRIPTION: Homo sapiens, LS-1034
Description: SANGER: Inhibition of human LS-1034 cell growth in a cell viability assay.
pIC50: −log10 of the molar value.
Quick list: pIC50 per entry.

Solved cases below.
>  <COMPOUND>
Nc1cccc2c1CN(C1CCC(=O)NC1=O)C2=O (stereo not given) [LENALIDOMIDE]

>  <pIC50>
< 5.30

$$$$
>  <COMPOUND>
COc1cc2ncn(-c3cc(OCc4ccccc4S(C)(=O)=O)c(C#N)s3)c2cc1OC [GSK-319347A]

>  <pIC50>
< 5.30

$$$$
>  <COMPOUND>
CCN(CC)CCNC(=O)c1c(C)[nH]c(/C=C2\C(=O)Nc3ccc(F)cc32)c1C

>  <pIC50>
< 5.10

$$$$
>  <COMPOUND>
OCCCNc1cc(-c2ccnc(Nc3cccc(Cl)c3)n2)ccn1

>  <pIC50>
6.59

$$$$
>  <COMPOUND>
N#Cc1c(O)c2c(-c3ccc(-c4ccccc4O)cc3)csc2[nH]c1=O

>  <pIC50>
< 5.99

$$$$

Input line: What does the record list as pIC50 for Cc1cc([N+](=O)[O-])ccc1NS(=O)(=O)c1cc(Cl)ccc1Cl ?
Output line: 5.26

Input line: What does the record list as pIC50 for CC(C)c1ccccc1Cc1cc(C(=O)Nc2ccc(S(=O)(=O)c3ccccc3C(C)(C)C)cc2)c(O)c(O)c1O ?
Output line: 5.87

Input line: What does the record list as pIC50 for CCN(CC)CCCCNc1ncc2cc(-c3cc(OC)cc(OC)c3)c(NC(=O)NC(C)(C)C)nc2n1 ?
Output line: < 5.70

Input line: What does the record list as pIC50 for Cc1ccc(-c2c(C(=O)CCl)n(CCCO)c3ncnc(N)c23)cc1 ?
Output line: < 5.40

Input line: What does the record list as pIC50 for O=C(O)c1ccc(-c2c[nH]c3ncc(-c4ccccc4)cc23)cc1C1CCCC1 ?
Output line: < 4.80

---

Tested on: SW48
PROCEDURE_DETAILS: cells
Format: functional, cell-based, Homo sapiens
CONDITION_DESCRIPTION: sw48
Description: SANGER: Inhibition of human SW48 cell growth in a cell viability assay.
EXPERIMENTAL_ENDPOINT: IC50 (nM)
Write it as a number; the unit nM goes unstated.

Input line: What does the record list as IC50 for BLEOMYCIN ?
Output line: 546

---

Test system: COLO-678
PROCEDURE_DETAILS: cells
Format: functional, cell-based, Homo sapiens
CONDITION_DESCRIPTION: colo-678
Description: SANGER: Inhibition of human COLO-678 cell growth in a cell viability assay.
EXPERIMENTAL_ENDPOINT: pIC50
Please keep in mind that pIC50 is minus log10 of the molar concentration; only the number is needed.

Input line: What does the record list as pIC50 for CISPLATIN ?
Output line: 3.21

---

System: COR-L88
PROCEDURE_DETAILS: cells
Type: functional, cell-based, Homo sapiens
CONDITION_DESCRIPTION: Homo sapiens, COR-L88
Description: SANGER: Inhibition of human COR-L88 cell growth in a cell viability assay.
pIC50: −log10 of the molar value.
Quick list: pIC50 per entry.

>  <QUERY_SMILES>
CCN(CC)CCCCNc1ncc2cc(-c3cc(OC)cc(OC)c3)c(NC(=O)NC(C)(C)C)nc2n1

>  <pIC50>
< 5.70

$$$$
>  <QUERY_SMILES>
CCC/C=C/C=C/C(=O)O[C@H]1/C(=C/C(=O)OC)C[C@H]2C[C@H]([C@@H](C)O)OC(=O)C[C@H](O)C[C@@H]3C[C@H](OC(C)=O)C(C)(C)[C@](O)(C[C@@H]4C/C(=C/C(=O)OC)C[C@H](/C=C/C(C)(C)[C@]1(O)O2)O4)O3

>  <pIC50>
< 8.10

$$$$
>  <QUERY_SMILES>
O=C(O)c1ccc(-c2c[nH]c3ncc(-c4ccccc4)cc23)cc1C1CCCC1

>  <pIC50>
< 4.80

$$$$

Input line: What does the record list as pIC50 for COc1cc(-c2nn([C@H]3CC[C@H](N4CCN(C(C)=O)CC4)CC3)c3ncnc(N)c23)ccc1NC(=O)c1cc2ccccc2n1C ?
Output line: < 5.29

Input line: What does the record list as pIC50 for C=C(c1ccc(C(=O)O)cc1)c1cc2c(cc1C)C(C)(C)CCC2(C)C ?
Output line: < 5.10

Input line: What does the record list as pIC50 for Cc1cn(-c2cc(NC(=O)c3ccc(C)c(Nc4nccc(-c5cccnc5)n4)c3)cc(C(F)(F)F)c2)cn1 ?
Output line: < 5.70

Input line: What does the record list as pIC50 for N#Cc1c(O)c2c(-c3ccc(-c4ccccc4O)cc3)csc2[nH]c1=O ?
Output line: 6.14

Input line: What does the record list as pIC50 for CC1(C)CNc2cc(NC(=O)c3cccnc3NCc3ccncc3)ccc21 ?
Output line: < 5.70
